# System: LXRb:RXRa (NR concentration 270 nM, RXRa partner concentration 90 nM)
# Experiment description: PBM binding z-score (relative to random genomic background probes); higher = stronger binding; sequences stand for … in GC…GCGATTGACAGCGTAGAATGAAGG

{"Sequence text": "CTACCAAGGCGAACAAGGTCGTTGATTACTATTC", "PBM binding z-score": 0.521}
{"Sequence text": "TATACAGGGTCCAAGGCCAGAGTACGAATGTCGA", "PBM binding z-score": 0.18}
{"Sequence text": "GCTGCTAGGTCAGGTTGCTCAGCTAACGGGTACG", "PBM binding z-score": 0.238}
{"Sequence text": "CAAACTAGGTCACCGGAAGCTCAAAGTCCGCATG", "PBM binding z-score": 2.24}
{"Sequence text": "TCTTGTAGAGCAGCAGGTTAAGAAAGCTGGCCAA", "PBM binding z-score": -0.257}
{"Sequence text": "ATGGAAAGGTCGAAGGTGAGTATACCCACCCGAA", "PBM binding z-score": 2.82}
{"Sequence text": "GCATATAGGTACTACAAGGTGAAAGTCCGATTGT", "PBM binding z-score": 0.0572}
{"Sequence text": "TCATATAGGTAAAAGGTGAAAGCCGGTGTGGTAA", "PBM binding z-score": 1.77}
{"Sequence text": "CCTGGGAGGACAACAGGAGGTCAGAGCTGCCAGA", "PBM binding z-score": 1.57}
{"Sequence text": "TCTGCTAGGTCAACGATGGTGAGCTAATCTGCTA", "PBM binding z-score": 1.15}
{"Sequence text": "AGTCAAAGTTCACTAGGTAACGGAAGATTCAGCT", "PBM binding z-score": 3.15}
{"Sequence text": "AGAATGAGGTTCTACGTAGATCAGGGAAGAAAGT", "PBM binding z-score": -0.345}

###

# Test system: LXRb homodimer (NR concentration 270 nM)
# Experiment description: PBM binding z-score (relative to random genomic background probes); higher = stronger binding; sequences stand for … in GC…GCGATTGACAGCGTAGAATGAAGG
Respond with 1 for PBM binding z-score values of -0.3 and above, -1 for values below.

{"Sequence text": "CCTTACGGATCACTCCAGGTTATAGCATCGGAGT", "System": "LXRb homodimer (NR concentration 270 nM)", "Group": 1}
{"Sequence text": "GCTAGCAGGCCATTTGTGTCACTCAATGACGGGC", "System": "LXRb homodimer (NR concentration 270 nM)", "Group": -1}
{"Sequence text": "TCATATAGGAAAAAGGTGAAAGTCGGTGTGGTAA", "System": "LXRb homodimer (NR concentration 270 nM)", "Group": 1}
{"Sequence text": "GGAACGAGGGCATTCGAGTTGATAGCTTGGCGAT", "System": "LXRb homodimer (NR concentration 270 nM)", "Group": -1}
{"Sequence text": "CTACCAAGGTGAACAAGGTCGTTGTTTACTATTC", "System": "LXRb homodimer (NR concentration 270 nM)", "Group": -1}
{"Sequence text": "GCTGCTAAGTCAGGTTGGTCAGCTAACGGGTACG", "System": "LXRb homodimer (NR concentration 270 nM)", "Group": -1}
{"Sequence text": "ATCTCTAGGTAACCAATTTCAGTGAATGCCGAAC", "System": "LXRb homodimer (NR concentration 270 nM)", "Group": 1}
{"Sequence text": "TAGCCGAGGTCATTGGGCCAGTATAGTACGCATC", "System": "LXRb homodimer (NR concentration 270 nM)", "Group": 1}
{"Sequence text": "CGAACGAGGGCATGAGTTGCTAGCAAATGCCGAT", "System": "LXRb homodimer (NR concentration 270 nM)", "Group": -1}
{"Sequence text": "CGTCCAAGGTCAGCAGGTCCGTGAAAGCGACGTG", "System": "LXRb homodimer (NR concentration 270 nM)", "Group": 1}
{"Sequence text": "ACTTACGGGTCAGCGAGGTTATAGCACGCGTATA", "System": "LXRb homodimer (NR concentration 270 nM)", "Group": 1}
{"Sequence text": "ATATGTAGGTTATCGGGTCATCCAGTTTGCGCAT", "System": "LXRb homodimer (NR concentration 270 nM)", "Group": 1}
{"Sequence text": "AGCTCTAGGTAAAGTTCAGTGAAAGATCGATAGA", "System": "LXRb homodimer (NR concentration 270 nM)", "Group": 1}
{"Sequence text": "ACTATTAGTTGGGACGAGGGCAACCGATAGGTTG", "System": "LXRb homodimer (NR concentration 270 nM)", "Group": 1}
{"Sequence text": "CGTCCAAGGTCAATGCTAGGTCCGTGAAAGCATT", "System": "LXRb homodimer (NR concentration 270 nM)", "Group": 1}
{"Sequence text": "ATCGAAAGGTCGTGAGGTGATTATACAGAAAGGC", "System": "LXRb homodimer (NR concentration 270 nM)", "Group": 1}
{"Sequence text": "TCATATAGCTAAAGGTGAAAGTCGAACGATATGA", "System": "LXRb homodimer (NR concentration 270 nM)", "Group": -1}
{"Sequence text": "CGTCACAGTTCAAGGTAACGTAACAGAAAGCAGC", "System": "LXRb homodimer (NR concentration 270 nM)", "Group": 1}
{"Sequence text": "CCTTACGGGTCACTGACAGGTTATAGCATTTGGA", "System": "LXRb homodimer (NR concentration 270 nM)", "Group": 1}
{"Sequence text": "CAAACTAGGTCACCGGAATGTCAAAGTCCGCATG", "System": "LXRb homodimer (NR concentration 270 nM)", "Group": 1}
{"Sequence text": "TCTAGTAGGTTAGGGGCATTCAGAATGGCGTCGA", "System": "LXRb homodimer (NR concentration 270 nM)", "Group": 1}
{"Sequence text": "CATACTGGGCCATCAGGTCATTGATATCAACGTT", "System": "LXRb homodimer (NR concentration 270 nM)", "Group": 1}
{"Sequence text": "CAAACTAGGTCACCGGCAGGTCAAAGTCCGCATG", "System": "LXRb homodimer (NR concentration 270 nM)", "Group": 1}
{"Sequence text": "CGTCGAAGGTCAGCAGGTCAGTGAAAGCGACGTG", "System": "LXRb homodimer (NR concentration 270 nM)", "Group": -1}
{"Sequence text": "CGAACTAGGTCAGAACAGGGCAGTGAAGGATGAT", "System": "LXRb homodimer (NR concentration 270 nM)", "Group": -1}
{"Sequence text": "TTACCAAGGTGAAAGTTCGTTGATGCACGCCTTG", "System": "LXRb homodimer (NR concentration 270 nM)", "Group": -1}

###

# Tested on: PPARg:RXRa IVT, anti-PPARg (NR concentration 270 nM, RXRa partner concentration 90 nM)
# Experiment description: PBM binding z-score (relative to random genomic background probes); higher = stronger binding; sequences stand for … in GC…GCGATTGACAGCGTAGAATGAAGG
Note to self: values exactly at 2 are yes (1). So PBM binding z-score at or above 2 is yes (1), below is no (0).

{"Sequence text": "ACAGACAGGTGATGAAGGTAACCCAGGCTATCAT", "Group": "no (0)"}
{"Sequence text": "CCTCGGAGGACAGAAGGTCAGAGTTGTCCGCTTT", "Group": "no (0)"}
{"Sequence text": "TCGAGTAGATTAGGGGCATTCAGAATGGCGTCGA", "Group": "no (0)"}
{"Sequence text": "CGTCCAAGGTCATAGGAGGTCAGTCAAGACAGAT", "Group": "yes (1)"}
{"Sequence text": "AGTCAAAGTTCATCTAGGTGACGTAAGATATGCT", "Group": "yes (1)"}
{"Sequence text": "CGAACTTGGTCAGAACAGGACAGTGAAGGATGAT", "Group": "no (0)"}
{"Sequence text": "TCTCGGAGGCCACGAAGGTCAGAGCTTTCCAGAG", "Group": "no (0)"}
{"Sequence text": "TAGCCTAGGTCATTGGGCCAGCATAGTACGCATC", "Group": "yes (1)"}
{"Sequence text": "CCTGCTAGGTCAATGGTCCGCTAAAGCAGCTCGC", "Group": "yes (1)"}
{"Sequence text": "CGAACTTGGTCATTGACAGGACAGTGAATAGTAA", "Group": "no (0)"}
{"Sequence text": "TAGCCTAGGTCATGCGGGCCAGTATTGTGTCGGC", "Group": "yes (1)"}
{"Sequence text": "GCTGCTAGGTCAGGCTGGTCAGCTAACGGGTACG", "Group": "yes (1)"}
